Value source: patent US8063225B2

Listed compounds paired with reported IC50
# tgt: InsR (Homo sapiens, UniProt P06213)
# Sequence (P06213 1023-1298 limits assumed, species assumed): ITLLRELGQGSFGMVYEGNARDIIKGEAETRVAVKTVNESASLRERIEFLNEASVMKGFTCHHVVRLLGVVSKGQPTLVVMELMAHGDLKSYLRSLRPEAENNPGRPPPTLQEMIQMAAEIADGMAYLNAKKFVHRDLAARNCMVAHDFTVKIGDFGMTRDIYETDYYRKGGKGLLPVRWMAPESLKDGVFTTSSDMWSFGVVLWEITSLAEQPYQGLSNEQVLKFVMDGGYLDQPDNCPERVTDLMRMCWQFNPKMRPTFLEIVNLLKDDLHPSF

// solved cases for IC50 follow
{"columns": ["compound", "IC50"],
 "data": [
  ["CN1CCCC1CCN1C(=O)c2cc3nc(-c4c(NC[C@@H](O)c5cccc(Cl)c5)cc[nH]c4=O)[nH]c3cc2C1=O (stereo partly drawn) [compound 18]", "500 to 5000 nM"],
  ["CN1CCC(N2C(=O)c3cc4nc(-c5c(NC[C@@H](O)COc6cccc7c6OC(F)(F)C(F)O7)cc[nH]c5=O)[nH]c4cc3C2=O)CC1 (stereo partly drawn) [compound 83]", "< 500 nM"]
]}

Let us move to another entry and its IC50.
Which IC50 is reported with InsR (Homo sapiens, UniProt P06213) for this entry: Cc1c(Cl)cccc1OC[C@H](O)CNc1cc[nH]c(=O)c1-c1nc2cc3c(cc2[nH]1)C(=O)N(C1CCN(C)CC1)C3 [compound 133] ?
< 500 nM
